Origin of the recorded values: patent US11214803B2

# Yap1 mRNA, % UTC per record follows
- System: Yap1 mRNA
- test.description: Dose-dependent inhibition of human Yap1 in A-431 cells (Example 8, 10,000 cells per well, RTS4814)
- Format: cell-based
- condition.details: 500.0 nM; A-431 cells, 10,000 cells per well, free uptake, approximately 48 hours, RTS4814
Strand notation (5' to 3'): a small letter for the sugar, then the base; units joined by * are phosphorothioate-linked, units joined directly phosphodiester-linked; [ ] holds rarer units or linkages, { } end groups; capitals alone tell only the bases. k = constrained ethyl (cEt); [5mC] = 5-methylcytosine; d = 2'-deoxy (DNA)
reported.metric: Yap1 mRNA, % UTC

1076115 (k[5mC]*kA*kT*dT*dA*dG*dT*dA*dA*dG*d[5mC]*dT*dG*kA*kG*kG; antisense) [compound 1076115]    9 % UTC
1076458 (k[5mC]*kT*kT*dA*dA*dT*dT*dA*dG*d[5mC]*d[5mC]*dT*d[5mC]*kA*kG*kT; antisense) [compound 1076458]    23 % UTC
1075824 (kG*kT*kA*dT*dT*dA*dG*dA*dG*dG*dT*dT*d[5mC]*k[5mC]*kA*kG; antisense) [compound 1075824]    5 % UTC
1075457 (antisense kA*kG*kT*dA*dA*dT*dA*dT*dG*dT*dA*d[5mC]*dA*kT*kG*kG) [compound 1075457]    8 % UTC
1074274 (antisense kG*kT*kT*d[5mC]*dT*dT*dA*dT*dG*dG*dT*dT*dT*kA*kT*kA) [compound 1074274]    7 % UTC
1075137 (kG*kA*kT*dT*dA*dA*dA*dT*dA*d[5mC]*dT*dG*dA*k[5mC]*k[5mC]*kA; antisense) [compound 1075137]    8 % UTC
